Measured on: T1, rTAP1/TAP2a(E218M) (rat) (UniProt P36370)
T1 sequence (P36370 1-725 with E218M, looked up): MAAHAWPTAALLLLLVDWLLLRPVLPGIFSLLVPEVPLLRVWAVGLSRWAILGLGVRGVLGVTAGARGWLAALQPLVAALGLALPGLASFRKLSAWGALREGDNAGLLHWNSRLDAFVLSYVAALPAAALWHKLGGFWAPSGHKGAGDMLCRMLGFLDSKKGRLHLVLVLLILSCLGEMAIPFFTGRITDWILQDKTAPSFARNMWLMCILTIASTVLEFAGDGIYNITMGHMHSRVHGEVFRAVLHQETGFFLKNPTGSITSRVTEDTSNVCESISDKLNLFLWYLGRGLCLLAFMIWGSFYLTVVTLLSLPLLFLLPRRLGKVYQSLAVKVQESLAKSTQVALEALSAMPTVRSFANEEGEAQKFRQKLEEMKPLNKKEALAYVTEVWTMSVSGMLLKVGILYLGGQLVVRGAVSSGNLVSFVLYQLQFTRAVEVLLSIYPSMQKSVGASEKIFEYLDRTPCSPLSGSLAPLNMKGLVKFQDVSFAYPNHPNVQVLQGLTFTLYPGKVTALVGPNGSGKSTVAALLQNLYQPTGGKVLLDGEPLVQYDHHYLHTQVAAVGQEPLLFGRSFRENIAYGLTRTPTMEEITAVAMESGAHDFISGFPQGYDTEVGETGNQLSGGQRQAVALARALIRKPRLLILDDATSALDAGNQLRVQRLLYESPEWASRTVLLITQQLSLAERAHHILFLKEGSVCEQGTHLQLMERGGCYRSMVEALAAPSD
T1 sequence (P36372 1-703 with E218M, looked up): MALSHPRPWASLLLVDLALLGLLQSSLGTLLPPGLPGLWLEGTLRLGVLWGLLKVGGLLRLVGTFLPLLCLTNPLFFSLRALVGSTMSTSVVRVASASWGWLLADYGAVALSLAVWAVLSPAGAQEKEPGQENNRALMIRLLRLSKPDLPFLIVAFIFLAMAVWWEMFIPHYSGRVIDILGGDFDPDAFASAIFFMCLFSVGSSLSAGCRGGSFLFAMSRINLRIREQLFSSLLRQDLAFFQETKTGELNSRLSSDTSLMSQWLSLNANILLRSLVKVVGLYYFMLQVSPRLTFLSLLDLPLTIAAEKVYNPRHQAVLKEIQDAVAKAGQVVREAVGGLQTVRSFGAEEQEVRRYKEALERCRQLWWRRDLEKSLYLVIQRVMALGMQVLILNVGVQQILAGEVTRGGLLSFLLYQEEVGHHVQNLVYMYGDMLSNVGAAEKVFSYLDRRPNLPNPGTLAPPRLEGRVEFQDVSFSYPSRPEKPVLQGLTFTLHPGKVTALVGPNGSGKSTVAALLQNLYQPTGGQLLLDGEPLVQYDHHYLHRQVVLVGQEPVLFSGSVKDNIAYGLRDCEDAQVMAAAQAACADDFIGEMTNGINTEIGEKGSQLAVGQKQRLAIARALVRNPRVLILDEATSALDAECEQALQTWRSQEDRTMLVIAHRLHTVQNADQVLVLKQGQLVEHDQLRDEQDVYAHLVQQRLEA
Assay name: cross-linking
Primed or numbered codes have the meaning given here. No end group written: not given here. FITC′ = fluorescein isothiocyanate
Measured parameter: Kd (nM)
Your answer should be a plain number; it is taken to be in nM.

Exercise: Kd for TVDNK(FITC′)CAYV [TVDNK*CAYV (TC6V), FITC-labeled] ?
Solution: 339

Source of measurements: paper PMC4681580
